Data origin: patent US7265121B2

Observed Property: melting point

>>> value_observed("C=CC[C@@H](NC(=O)c1ccc2cc[nH]c2c1)C(=O)N1CCN(C2CCN(C)CC2)CC1.Cl")
"110 to 115 °C (dec.)"
>>> value_observed("C=CC[C@@H](NC(=O)c1cc2cc(Cl)ccc2[nH]1)C(=O)N1CCN(C2CCN(C)CC2)CC1.Cl")
"170 to 175 °C (dec.)"
>>> value_observed("C#CC[C@@H](NC(=O)c1cc2ccc(Cl)cc2s1)C(=O)N1CCN(C2CCN(C)CC2)CC1.Cl")
"115 to 135 °C (dec.)"
>>> value_observed("C=CC[C@@H](NC(=O)c1cc2ccc(Cl)cc2s1)C(=O)N1CCN(C2CCN(C)CC2)CC1.Cl")
"130 to 135 °C (dec.)"
>>> value_observed("C#CC[C@@H](NC(=O)c1cc2cc(Cl)ccc2[nH]1)C(=O)N1CCN(C2CCN(C)CC2)CC1.Cl")
"174 to 185 °C (dec.)"
>>> value_observed("C#CC[C@@H](NC(=O)c1ccc2cc[nH]c2c1)C(=O)N1CCN(C2CCN(C)CC2)CC1.Cl")
"170 to 180 °C (dec.)"
